- tgt: Aldehyde dehydrogenase 1A1 (Homo sapiens) (UniProt P00352)
- Sequence (P00352 whole entry, looked up): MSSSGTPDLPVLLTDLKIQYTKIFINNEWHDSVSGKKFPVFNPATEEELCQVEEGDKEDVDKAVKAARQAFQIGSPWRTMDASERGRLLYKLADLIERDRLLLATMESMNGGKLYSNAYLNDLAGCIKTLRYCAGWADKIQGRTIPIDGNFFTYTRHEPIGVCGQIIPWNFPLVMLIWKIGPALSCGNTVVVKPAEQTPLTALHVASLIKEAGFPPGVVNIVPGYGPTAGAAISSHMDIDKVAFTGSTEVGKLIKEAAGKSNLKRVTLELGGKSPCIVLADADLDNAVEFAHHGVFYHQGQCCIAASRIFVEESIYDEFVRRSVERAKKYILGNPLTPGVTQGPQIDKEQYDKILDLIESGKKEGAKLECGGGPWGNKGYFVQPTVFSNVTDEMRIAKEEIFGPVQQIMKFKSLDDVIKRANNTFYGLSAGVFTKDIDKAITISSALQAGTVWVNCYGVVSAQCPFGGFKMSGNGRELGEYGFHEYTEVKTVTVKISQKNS
- test.details: qHTS Assay for Inhibitors of Aldehyde Dehydrogenase 1 (ALDH1A1)
- condition.info: Purified ALDH1A1, NADH fluorescence, propionaldehyde substrate; series mostly up to 75.3 µM
About 16,000 (7.3%) of roughly 220,000 compounds were called active. Another 25% or so got no clear call; they are omitted. The call rests on the fitted dose curve; in most records, active means well fitted inhibition curve with a large enough effect (not every such curve was filed as active); inconclusive means small, poorly fitted or top-dose-only effect, or another doubt; inactive means no such curve, though single readings can be large or run the other way. Only a selection was taken, and actives are over-represented in it overall.
Response enum: active, inactive

The following molecules have reported results that may help.
>>> class("Cc1ccc(COc2ccc(C(=O)NN)cc2)cc1")
"active"
>>> class("CCOc1ccc(NS(=O)(=O)c2ccc(OCC(=O)NCCCOC)cc2)cc1")
"inactive"
>>> class("CSc1ncccc1C(=O)NC1CCCCCC1")
"inactive"
>>> class("Cc1cccc(NC(=S)N2CCC(O)CC2)c1C")
"inactive"
>>> class("COc1cccc(-n2c(=O)c3c(C)c(C(=O)N(C)C)sc3n(CC(=O)NCCc3ccc(OC)c(OC)c3)c2=O)c1")
"inactive"
>>> class("COc1ccc(C(CCN(Cc2ccc(OC)c(OC)c2)C(=O)CCl)c2ccccc2)cc1 (centres undefined)")
"active"

Task item: # outcome recorded in this test, key = CCOc1ccc(N2C(=O)CC(N(CCc3ccc(OC)c(OC)c3)C(=S)Nc3ccccc3)C2=O)cc1 (centres undefined)
Reply: inactive

Task item: # outcome recorded in this test, key = O=C(N/N=C\c1ccc(Br)cc1)c1ccc(Cn2cccn2)o1
Reply: inactive

Task item: # outcome recorded in this test, key = Cc1cccc(OCc2ccc(C(=O)Nc3ccc(F)cc3)cc2)c1
Reply: inactive

Task item: # outcome recorded in this test, key = CSCC(=O)N1CCCC(C(=O)c2cc(F)ccc2F)C1 (centres undefined)
Reply: active

Task item: # outcome recorded in this test, key = NC(N)=NCCCc1cn(CC(=O)N2CCNCC2)nn1
Reply: inactive

====

- tgt: Aldehyde dehydrogenase 1A1 (Homo sapiens) (UniProt P00352)
- test.details: qHTS Assay for Inhibitors of Aldehyde Dehydrogenase 1 (ALDH1A1); further: potency means the concentration at half of the fitted maximal effect
- condition.info: Purified ALDH1A1, NADH fluorescence, propionaldehyde substrate; series mostly up to 75.3 µM
The whole screen tested about 220,000 compounds, of which about 16,000 (7.3%) were called active. Inconclusive results (about 25%) are left out. What follows is part of a selection rich in actives, with near analogues and random picks from the rest.
reported.endpoint: Potency

Below: 6 compounds and their reported Potency.
>>> result("COc1ccc(SCc2noc(C(=O)NCC3CCCO3)c2C(=O)O)cc1 (centres undefined)")
"inactive"
>>> result("COc1ccc(C2OC(=O)CC2C(=O)NC(C)C)cc1 (centres undefined)")
"15.8 µM (active)"
>>> result("c1nnc2c3c4c(sc3ncn12)CCC4")
"inactive"
>>> result("CC(=O)c1cccc(CN2CCC(CO)(Cc3ccccc3)CC2)c1")
"inactive"
>>> result("CN(C)CC(C)(C)CNC(=O)c1cc(Br)cc(Br)c1O")
"inactive"
>>> result("O=C(Nc1ccccc1-c1ccccc1)c1cccs1")
"inactive"

Record summary for Cc1ccnc(NC(=O)CCC(=O)N(CC(=O)NCCc2ccccc2)Cc2cccs2)c1 : reported Potency = 14.1 µM (active)

Record summary for CCCCNC(=O)N1CCN(S(C)(=O)=O)CC1 : reported Potency = inactive

Record summary for CCOc1ccc(-c2n[nH]c(C)c2-c2ccccn2)c(O)c1 : reported Potency = inactive

Record summary for Cc1ccc(NC(=S)N(Cc2ccco2)C(C)c2cccs2)cc1 (centres undefined) : reported Potency = inactive

Record summary for N#Cc1cccc(Nc2c3c(nc4ccccc24)CCCC3)c1 : reported Potency = inactive

Record summary for CC(=O)N1c2ccccc2N(Cc2ccc([N+](=O)[O-])cc2)C(=O)C1(C)C : reported Potency = inactive

====

- tgt: Aldehyde dehydrogenase 1A1 (Homo sapiens)
- test.details: qHTS Assay for Inhibitors of Aldehyde Dehydrogenase 1 (ALDH1A1)
- condition.info: Purified ALDH1A1, NADH fluorescence, propionaldehyde substrate; series mostly up to 75.3 µM
Hit rate of the full screen: of about 220,000 compounds, about 16,000 (7.3%) were called active. Inconclusive results (about 25%) are left out. Calls come from the whole dose curve; as a rule, active = well fitted inhibition curve with a large enough effect (not every such curve was filed as active); inconclusive = small, poorly fitted or top-dose-only effect, or another doubt; inactive = no such curve, though single readings can be large or run the other way. Only a selection was taken, and actives are over-represented in it overall.
Response enum: active, inactive

The following compounds have reported results that may help.
>>> class("Cc1nn(-c2ccccc2)c2c1C(c1cccc([N+](=O)[O-])c1)N(c1ccccc1)C(=O)N2 (centres undefined)")
"inactive"
>>> class("Oc1ccc(-c2onc3ccc(Cl)cc23)cc1")
"active"
>>> class("Cc1cccc(C(=O)OCC(=O)NCC(C)C)c1O")
"inactive"

Task item: # outcome recorded in this test, key = CCc1ccc(CN2C(=O)c3ccccc3C2C(=O)NCC2CCCO2)cc1 (centres undefined)
Reply: inactive

Task item: # outcome recorded in this test, key = CC[C@H](C)[C@@H](C(=O)N1CCNCC1)n1cc([C@@H](N)Cc2ccc(O)cc2)nn1
Reply: inactive

Task item: # outcome recorded in this test, key = CCNc1ccc(C(=O)OCC(=O)N2c3ccccc3NC(=O)C2(C)C)cc1[N+](=O)[O-]
Reply: active

Task item: # outcome recorded in this test, key = C=CCn1c(CCNC(=O)c2ccccc2F)nnc1SCC(=O)Nc1ccc(OC)cc1
Reply: inactive

Task item: # outcome recorded in this test, key = CCOc1ccc(N(CC(=O)NCCc2ccc(OC)cc2)S(C)(=O)=O)cc1
Reply: inactive

Task item: # outcome recorded in this test, key = CN(C)c1nnnn1-c1ccc(Cl)cc1
Reply: inactive

Task item: # outcome recorded in this test, key = O=C(CCC(=O)OCc1ccc(Cl)cc1)Nc1ccccc1
Reply: inactive

Task item: # outcome recorded in this test, key = COc1ccc(Br)c2c1C(=O)CC2
Reply: inactive

Task item: # outcome recorded in this test, key = O=C(Nc1ccc(Br)cn1)c1ccc([N+](=O)[O-])o1
Reply: inactive

====

- tgt: Aldehyde dehydrogenase 1A1 (Homo sapiens)
- test.details: qHTS Assay for Inhibitors of Aldehyde Dehydrogenase 1 (ALDH1A1)
- condition.info: Purified ALDH1A1, NADH fluorescence, propionaldehyde substrate; series mostly up to 75.3 µM
Among all 220,000 compounds or so, about 16,000 (7.3%) were called active. Not shown: some 25% with an inconclusive outcome. Calls come from the whole dose curve; as a rule, active = well fitted inhibition curve with a large enough effect (not every such curve was filed as active); inconclusive = small, poorly fitted or top-dose-only effect, or another doubt; inactive = no such curve, though single readings can be large or run the other way. The full list was thinned out, with actives kept by preference.
Response enum: active, inactive

The following compounds have reported results that may help.
>>> class("NC(N)=N/N=C/c1ccc(Cl)c([N+](=O)[O-])c1")
"inactive"
>>> class("CCOC(=O)c1ccc(NC2Nc3cc(C)nn3S2)cc1 (configuration not stated)")
"active"
>>> class("Cc1cc(=O)[nH]c(SCC(=O)N2c3ccccc3CC2C)n1 (configuration not stated)")
"inactive"
>>> class("CCOC(=O)c1ccc(NC(=O)Cn2nnc(-c3ccc(C)cc3)n2)cc1")
"inactive"
>>> class("COc1ccc(CCN2C(=O)C3CC=C(C)CC3C2=O)cc1OC (configuration not stated)")
"active"

Task item: # outcome recorded in this test, key = CCNC(=O)CC1C(=O)N(c2ccc(F)cc2)C(=O)N1Cc1cccs1 (configuration not stated)
Reply: inactive

Task item: # outcome recorded in this test, key = O=C1CSC(=S)N1/N=C/c1ccc(O)c([N+](=O)[O-])c1
Reply: active

Task item: # outcome recorded in this test, key = CCc1ccc(NC(=O)N2CCN(c3ccccc3)CC2)cc1
Reply: inactive

====

- tgt: Aldehyde dehydrogenase 1A1 (Homo sapiens) (UniProt P00352)
- test.details: qHTS Assay for Inhibitors of Aldehyde Dehydrogenase 1 (ALDH1A1)
- condition.info: Purified ALDH1A1, NADH fluorescence, propionaldehyde substrate; series mostly up to 75.3 µM
Among all 220,000 compounds or so, about 16,000 (7.3%) were called active. Roughly 25% stayed inconclusive and do not appear here. Calls follow the shape of the dose curve; as a rule, active = well fitted inhibition curve with a large enough effect (not every such curve was filed as active); inconclusive = small, poorly fitted or top-dose-only effect, or another doubt; inactive = no such curve, though single readings can be large or run the other way. The list comes from a sample in which actives are over-represented; it also holds close analogues and randomly drawn compounds.
Response enum: yes = active, no = inactive

>>> class("COc1ccc(Nc2nc(N)nc(CSC(=S)N3CCC(C)CC3)n2)cc1")
"yes"
>>> class("COC(=O)c1ccc(-n2cnc3ccccc32)nc1")
"no"
>>> class("O=c1[nH]c(=S)[nH]c2[nH]c(=S)[nH]c12")
"yes"
>>> class("CCOC(=O)c1cnc(SCc2nc(N)nc(Nc3ccc(OC)cc3)n2)nc1N")
"no"
>>> class("Cc1ccc(S(=O)(=O)NC(C(=O)N2CCOCCOCCOCCOCC2)c2ccccc2)cc1 (stereo unspecified)")
"no"

Task item: # outcome recorded in this test, key = COC(=O)c1nn(-c2cccc(Cl)c2)ccc1=O
Reply: no

Task item: # outcome recorded in this test, key = O=C(Nc1cccc(Cl)c1)c1cc([N+](=O)[O-])ccc1N1CCN(CCO)CC1
Reply: no

Task item: # outcome recorded in this test, key = COc1cc(N2C(=O)c3ccccc3C2=O)c(Cl)cc1C(=O)OCC(=O)N1CCOCC1
Reply: no

Task item: # outcome recorded in this test, key = C=CCN(CC=C)CCOc1ccccc1[N+](=O)[O-]
Reply: no

Task item: # outcome recorded in this test, key = O=C(CNC(=O)COc1ccccc1)NCCc1ccccn1
Reply: no

Task item: # outcome recorded in this test, key = Cc1cc2ccccc2n1CCC(=O)O
Reply: no
